experiment: chemical genetic growth profiling, strain panel (AID 1159580);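 also: tested at 20 µM; growth read once vehicle control cultures reached saturation at 30 °C; 1 = growth at the plate median or of vehicle wells; lower values mean less growth of the strain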; conditions: S. cerevisiae deletion strains, growth OD, locus YER123W, strain YCK3, active compounds read low
Among all 5,500 compounds or so, about 2,000 (36%) were called active. Not shown: some 18% with an inconclusive outcome. This is one part of the list.
measuredProperty: normalized growth
Number, no unit, nothing else.

| smiles | numericResult |
| --- | --- |
| Cc1c(C(=S)Nc2ccccc2)sc2ccccc12 | 0.882 |

Entry under review: `CC1(C)OC(=O)C(=Cc2cccn2-c2ccc(OC(F)(F)F)cc2)C(=O)O1` . Reported normalized growth?
0.884

Form field: reported normalized growth of `Cc1c(-c2ccnn2C(=O)c2ccco2)cnn1-c1ccccc1`
0.925

# lookup: normalized growth of `Cc1nc(-c2ccc(S(=O)(=O)Nc3ccc(Br)cc3Cl)s2)cs1`
0.904

Look at this compound and give its reported normalized growth. `Cc1ccc(NS(=O)(=O)c2ccc(-c3csc(C)n3)s2)c(C)c1`
0.888

----------
Recorded measurements of normalized growth, one per entry
assay: chemical genetic growth profiling, strain panel (AID 1159580); conditions: S. cerevisiae deletion strains, growth OD, locus YKL068W, active compounds read low
The campaign covered roughly 5,500 compounds. About 2,000 (36%) were called active. Roughly 18% stayed inconclusive and do not appear here. The list shows a part of the results.
Output: the number by itself.

Some compounds with recorded normalized growth:
| compound | normalized growth |
| --- | --- |
| CO/N=C(\C(=O)N[C@@H]1C(=O)N2C(C(=O)O)=C(CSc3nc(=O)c(O)nn3C)CS[C@H]12)c1csc(N)n1 | 0.974 |
| CCCNC1CCc2nc(N)sc2C1 (stereo unspecified) | 1.01 |
| C=CCCCCCCCCCCCC(O)CC(O)COC(C)=O (stereo unspecified) (tested in a mixture with another compound) | 1.01 |
| CC1(C)NC(=O)N(c2ccc([N+](=O)[O-])c(C(F)(F)F)c2)C1=O | 0.992 |
| CC1(C)O[C@@H]2CC3C4CCC5=CC(=O)CCC5(C)C4(F)C(O)CC3(C)[C@]2(C(=O)CCl)O1 (stereo partly specified) | 0.98 |
| C#CCCCCCCCCCCCC(O)CC(O)CO (stereo unspecified) | 1.01 |
| CC(=O)OCC[C@H](C)CCC=C(C)C | 1.03 |
| CO/N=C(\C(=O)N[C@@H]1C(=O)N2C(C(=O)O)=C(COC(C)=O)CS[C@H]12)c1csc(N)n1 | 0.986 |

I am curious: what normalized growth value has been reported for O=C(C1CCCCC1)N1CC(=O)N2CCc3ccccc3C2C1 (stereo unspecified) ?
1

Reported normalized growth for `Nc1nc2ncc(=O)[nH]c2c(=O)[nH]1` : what is it?
0.981

Any idea what normalized growth was measured for CO[C@@]1(NC(=O)CSCC#N)C(=O)N2C(C(=O)O)=C(CSc3nnnn3C)CSC21 (stereo partly specified) ?
1.02

----------
Item-by-item account of normalized growth
assay: chemical genetic growth profiling, strain panel (AID 1159580); conditions: S. cerevisiae deletion strains, growth OD, locus YHR087W, strain rtc3, active compounds read low
Out of some 5,500 compounds screened, about 2,000 (36%) were called active. Another 18% or so got no clear call; they are omitted. Some of the results follow.

Use these answered entries as a reference point.
| smiles | normalized growth |
| --- | --- |
| CC(C)(C)S(=O)(=O)/C(C#N)=C/N1CCCCC1 | 0.992 (inactive) |
| O=C(CSCc1cccc2ccccc12)NNC(=S)Nc1ccccc1Cl | 1.02 (inactive) |
| O=C(CSCc1cccc2ccccc12)NNC(=O)c1ccc(F)cc1 | 0.98 (inactive) |
| Clc1ccc(C2=CSC3=NCCCN23)cc1 | 0.994 (inactive) |

Query (molecule): `CC(C)n1cc(C#N)c(=O)n(Cc2ccccc2)c1=O` ; field requested: normalized growth
0.989 (inactive)

# query: normalized growth of entry `Cc1onc(-c2ccccc2)c1NC(=O)Nc1c(Cl)cccc1Cl`
0.975 (inactive)

Using the record for `Cc1ccc(NC(=O)c2c(F)cccc2Cl)c(C(=O)Nc2ccc(F)cc2)c1` , report its normalized growth.
0.976 (inactive)

Look up normalized growth for this molecule: `N#C/C(=C\c1ccc(Oc2ccccc2)nc1)S(=O)(=O)c1ccccc1`
1 (inactive)

----------
test: chemical genetic growth profiling, strain panel (AID 1159580); conditions: S. cerevisiae deletion strains, growth OD, locus YKR026C, strain gcn3, active compounds read low
Hit rate of the full screen: of about 5,500 compounds, about 2,000 (36%) were called active. Another 18% or so got no clear call; they are omitted. Some of the results follow.
measuredProperty: normalized growth
Could you keep your reply to the number by itself?

Take a look at these entries with their results.
| compound | measuredProperty | numericResult |
| --- | --- | --- |
| C[N+]1(C)C2CC(OC(=O)[C@@H](CO)c3ccccc3)CC1C1OC12 (stereo not given in full) | normalized growth | 0.984 |
| Cc1cccc(Nc2ccccc2C(=O)O)c1C | normalized growth | 0.877 |
| O=S1OCC2C(CO1)C1(Cl)C(Cl)=C(Cl)C2(Cl)C1(Cl)Cl (stereo not given) | normalized growth | 0.987 |

Entry under review: `CC(C)C(=O)Nc1ccc([N+](=O)[O-])c(C(F)(F)F)c1` . Reported normalized growth?
1.01

Which normalized growth is listed for `NC(=O)c1cccc(N)c1` ?
0.977

----------
assay: chemical genetic growth profiling, strain panel (AID 1159580);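 also: tested at 20 µM; growth read once vehicle control cultures reached saturation at 30 °C; 1 = growth at the plate median or of vehicle wells; lower values mean less growth of the strain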; conditions: S. cerevisiae deletion strains, growth OD, locus YOR106W, strain vam3, active compounds read low
Structures can show the parent of a compound that is named as a salt. About 2,000 (36%) of roughly 5,500 compounds were called active. Inconclusive results (about 18%) are left out. This is one part of the list. Where a SMILES comes first, the peptide text is derived from it. The star is where a group is joined. Tfa = O=C(C(F)(F)F)*
# normalized growth annotations
Lab note: record just the number, no unit beside it.

// normalized growth lookup, key: CC1=CC2C(CC1=O)C(C)=CCC2C(C)C (centres undefined)
0.973

Consider the compound shown here: CCCC(=O)O[C@]1(C(=O)CO)CCC2[C@@H]3CCC4=CC(=O)CC[C@]4(C)C3[C@@H](O)C[C@@]21C (some centres undefined) What is its recorded normalized growth?
1

I'd like to know its normalized growth. The compound in question is `CC[N+](CC)(CC)CCOc1cccc(OCC[N+](CC)(CC)CC)c1OCC[N+](CC)(CC)CC`
1.02

For `O=C1C=C2C=C[C@@H]3C[C@@]2(O1)[C@H]1CCCCN31` , what is its reported normalized growth?
1.01

Quick one: normalized growth for CC(C)C(NC(=O)C(Cc1ccc(O)cc1)NC(=O)C(NC(=O)C(F)(F)F)C(C)C)C(=O)O (stereo not drawn) (Tfa-Val-Tyr-Val-OH; configuration not given here) ?
1

----------
experiment: chemical genetic growth profiling, strain panel (AID 1159580);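 also: tested at 20 µM; growth read once vehicle control cultures reached saturation at 30 °C; 1 = growth at the plate median or of vehicle wells; lower values mean less growth of the strain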; conditions: S. cerevisiae deletion strains, growth OD, locus YJL166W, strain qcr8
Out of some 5,500 compounds screened, about 2,000 (36%) were called active. Inconclusive results (about 18%) are left out. Cut-off read from the data, not from the text of the source: active = normalized growth mostly below about 0.91 (no sharp cut-off); inconclusive = no clear call, values can overlap the other calls; inactive = mostly above about 0.92. This is one part of the list.
# output must be one of true (1) = active, false (0) = inactive

Answered cases to consult:
| compound | assignedClass |
| --- | --- |
| O=C(Cn1ccnc1[N+](=O)[O-])NCCO | false (0) |
| C=C1C(=O)O[C@@H]2C3O[C@]3(C)CC/C=C(\C)CC[C@@H]12 (some centres not stated) | false (0) |
| COc1ccc(CCN2CCC(Nc3nc4ccccc4n3Cc3ccc(F)cc3)CC2)cc1 | false (0) |
| C=CCSCC1Nc2cc(Cl)c(S(N)(=O)=O)cc2S(=O)(=O)N1 (configuration not stated) | false (0) |

Look up the recorded call for `Cc1coc2c1C(=O)C(=O)c1c-2ccc2c1CCCC2(C)C` in this test.
false (0)

I would be grateful if you could indicate the recorded call for CCCCCCCCCCCCCCCC(=O)OC1C(SC)OC(C(NC(=O)C2CC(CCC)CN2C)C(C)Cl)C(O)C1O (configuration not stated) .
false (0)

Any idea what this test logged for CC(C)C(C)/C=C/C(C)[C@H]1CCC2C3=CCC4CC(=O)CC[C@]4(C)C3CC[C@@]21C (some centres not stated) ?
false (0)

Recorded call for `C[C@H]1COC2=C1C(=O)C(=O)c1c2ccc2c1CCCC2(C)C` ?
true (1)

What did the test return for `O=C(O)c1ccccc1-c1c2cc(Br)c(=O)cc-2oc2[c]([Hg])c(O)c(Br)cc12` ?
false (0)

----------
assay: chemical genetic growth profiling, strain panel (AID 1159580);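 also: tested at 20 µM; growth read once vehicle control cultures reached saturation at 30 °C; 1 = growth at the plate median or of vehicle wells; lower values mean less growth of the strain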; details: S. cerevisiae deletion strains, growth OD, locus YJL164C, strain tpk1, active compounds read low
The whole screen tested about 5,500 compounds, of which about 2,000 (36%) were called active. Inconclusive results (about 18%) are left out. Some of the results follow.
measuredProperty: normalized growth
Response field accepts a number only; no unit should be typed.

Worked examples follow.
| compound | numericResult |
| --- | --- |
| CC(C)COCC(CN(Cc1ccccc1)c1ccccc1)N1CCCC1 (stereo not given) | 1.01 |
| CO/N=C(\C(=O)N[C@@H]1C(=O)N2C(C(=O)O)=C(COC(C)=O)CS[C@H]12)c1csc(N)n1 | 0.975 |
| COc1c2ccoc2c(OC)c2oc(=O)ccc12 | 0.912 |
| Clc1cccc(Cl)c1NC1=NCCN1 | 0.996 |
| O=C(O)CN(CC(=O)O)Cc1cc2c(-c3ccccc3C(=O)O)c3cc(CN(CC(=O)O)CC(=O)O)c(=O)cc-3oc2cc1O | 0.929 |
| CO/N=C(\C(=O)NC1C(=O)N2C(C(=O)O)=C(COC(N)=O)CSC12)c1ccco1 (stereo not given) | 0.977 |

What value of normalized growth has been recorded for this entry: `CC[N+](CC)(CC)CCOc1cccc(OCC[N+](CC)(CC)CC)c1OCC[N+](CC)(CC)CC`
1.03

// normalized growth lookup, key: C[N+]1(C)C2CC(OC(=O)[C@@H](CO)c3ccccc3)CC1C1OC12 (stereo not given in full)
1

# normalized growth lookup, item `CCOC(=O)[C@H](CCc1ccccc1)N[C@@H](C)C(=O)N1[C@H](C(=O)O)C[C@@H]2CCC[C@@H]21`
0.995

// query normalized growth value for entry C#CCCCCCCCCCCCC(O)CC(O)CO (stereo not given)
0.982

GET /values?readout=normalized growth&item= `Cc1coc2c1C(=O)C(=O)c1c-2ccc2c1CCCC2(C)C`
0.927

Quick one: normalized growth of C#CCCCCCCCCCCCC(O)CC(O)COC(C)=O (stereo not given) ?
0.258

Returns the measured normalized growth for the input compound. Input: `CO/N=C(\C(=O)N[C@@H]1C(=O)N2C(C(=O)O)=C(CSc3nc(=O)c(O)nn3C)CS[C@H]12)c1csc(N)n1`
0.992

Look at this compound and give its reported normalized growth. `CC(=O)Oc1c(C)cccc1C(=O)O`
0.997

Would you kindly share the measured normalized growth for `Cc1cccc(Nc2ccccc2C(=O)O)c1C` ?
0.948

// lookup normalized growth for COC(=O)[C@@H]1OC(=O)[C@H]2O[C@@]23[C@@]1(C)CCC1[C@@]2(C)CCC(=O)C(C)(C)C2C[C@@H](OC(C)=O)[C@]13C (stereo not given in full)
1.03

Name the recorded normalized growth for O=C(C1CCCCC1)N1CC(=O)N2CCc3ccccc3C2C1 (stereo not given) .
1.02

Endpoint output: normalized growth of `CCCCC(=O)Oc1ccccc1C(=O)O` . Value?
0.981

Please report the recorded normalized growth for Nc1ccn(C2O[C@H](CO)[C@@H](O)[C@@H]2O)c(=O)n1 (stereo not given in full) .
0.989

Need normalized growth, item O=S1OCC2C(CO1)C1(Cl)C(Cl)=C(Cl)C2(Cl)C1(Cl)Cl (stereo not given)
0.942

Request the reported normalized growth associated with `Cc1c(S(=O)(=O)O)oc2c1C(=O)C(=O)c1c-2ccc2c1CCCC2(C)C`
0.918

# get_value(readout='normalized growth', item= `OCc1ccccc1O` )
1.02

What measured normalized growth goes with C=CC(N)CCC(=O)O (stereo not given) ?
0.979

Any idea what normalized growth was measured for `CCCCNc1ccc(C(=O)OCCN(C)C)cc1` ?
0.996

I'd like to know its normalized growth. The compound in question is `Cc1c(Cl)cccc1Nc1ccccc1C(=O)O`
0.803
